- assayed system: aldose reductase prepared from rat lenses (Rattus norvegicus)
- Construct: aldose reductase prepared from rat lenses; from tissue; host or cells: rat lens
- protocol notes: Aldose reductase inhibitory activity
- Type: biochemical
- conditions: at 5×10^-7 M; glyceraldehyde substrate, NADPH, absorbance at 340 nm; read-out: Inhibitory rate (%) against aldose reductase
- Description: Aldose reductase inhibitory activity of the compound of the present invention was evaluated by using aldose reductase prepared from rat lenses. […] After stability of absorbance was confirmed for a few minutes, glyceraldehyde was added to the reaction mixture and then the decrease in absorbance at 340 nm with the passage of time was measured to assay the inhibitory activity of the test compound against aldose reductase. […]
assay metric: inhibition at 0.5 µM (%)

# compound, assay metric, output unit, result
measured = [
    ("O=C(O)CN1C(=O)C(=O)N(Cc2ccc(Br)cc2)C1=O [Compound 44]", "inhibition at 0.5 µM", "%", 65),
    ("O=C(O)CN1C(=O)C(=O)N(Cc2ccc(Cl)cc2)C1=O [Compound 43]", "inhibition at 0.5 µM", "%", 56),
    ("O=C(O)CN1C(=O)C(=O)N(CCc2cccc([N+](=O)[O-])c2)C1=O [Compound 55]", "inhibition at 0.5 µM", "%", 36),
    ("O=C(O)CN1C(=O)C(=O)N(Cc2cccc(Cl)c2)C1=O [Compound 42]", "inhibition at 0.5 µM", "%", 31),
    ("CC1CCC(N2C(=O)C(=O)N(CC(=O)O)C2=O)CC1 (centres unmarked) [Compound 34]", "inhibition at 0.5 µM", "%", 49),
    ("O=C(O)CN1C(=O)NC(=O)C1=O [Compound 60, 1-carboxymethylparabanic acid]", "inhibition at 0.5 µM", "%", 31),
    ("Cc1ccc(CN2C(=O)C(=O)N(CC(=O)O)C2=O)cc1 [Compound 37]", "inhibition at 0.5 µM", "%", 30),
    ("Cc1ccccc1CN1C(=O)C(=O)N(CC(=O)O)C1=O [Compound 36]", "inhibition at 0.5 µM", "%", 41),
    ("O=C(O)CN1C(=O)C(=O)N(CCc2ccc(Br)cc2)C1=O [Compound 53]", "inhibition at 0.5 µM", "%", 47),
    ("CCOC(=O)CN1C(=O)C(=O)N(Cc2cccc([N+](=O)[O-])c2)C1=O [Compound 19]", "inhibition at 0.5 µM", "%", 31),
    ("O=C(O)CN1C(=O)C(=O)N(Cc2ccccc2Cl)C1=O [Compound 41]", "inhibition at 0.5 µM", "%", 32),
    ("COc1cccc(CN2C(=O)C(=O)N(CC(=O)O)C2=O)c1 [Compound 39]", "inhibition at 0.5 µM", "%", 44),
    ("O=C(O)CN1C(=O)C(=O)N(Cc2ccc(Cl)c(Cl)c2)C1=O [Compound 47]", "inhibition at 0.5 µM", "%", 75),
    ("O=C(O)CN1C(=O)C(=O)N(CCCCc2ccccc2)C1=O [Compound 57]", "inhibition at 0.5 µM", "%", 25),
    ("COc1ccc(CCN2C(=O)C(=O)N(CC(=O)O)C2=O)cc1OC [Compound 51]", "inhibition at 0.5 µM", "%", 42),
    ("O=C(O)CN1C(=O)C(=O)N(Cc2ccc(Cl)cc2Cl)C1=O [Compound 46]", "inhibition at 0.5 µM", "%", 61),
    ("O=C(O)CN1C(=O)C(=O)N(Cc2cccc([N+](=O)[O-])c2)C1=O [Compound 48]", "inhibition at 0.5 µM", "%", 75),
]

* * *

- assayed system: aldose reductase prepared from rat lenses (Rattus norvegicus, UniProt P07943)
- Construct: aldose reductase prepared from rat lenses; from tissue; host or cells: rat lens
- protocol notes: Aldose reductase inhibitory activity
- Type: biochemical
- conditions: at 5×10^-7 M; glyceraldehyde substrate, NADPH, absorbance at 340 nm; read-out: Inhibitory rate (%) against aldose reductase

# test smiles, inhibition at 0.5 µM
rows = [
    ("CCCCCCN1C(=O)C(=O)N(CC(=O)O)C1=O", "35%"),
    ("Cc1ccc(CCN2C(=O)C(=O)N(CC(=O)O)C2=O)cc1", "42%"),
    ("O=C(O)CN1C(=O)C(=O)N(CCc2ccccc2)C1=O", "30%"),
    ("O=C(O)CN1C(=O)C(=O)N(CCc2ccccc2Cl)C1=O", "37%"),
    ("O=C(O)CN1C(=O)C(=O)N(CCc2ccc(Cl)c(Cl)c2)C1=O", "57%"),
]

* * *

- protocol notes: Acute toxicity test (oral, LD50)
- conditions: rat, in vivo, Wistar-strain male rats, groups of 8, death rate of 7 days
Entries and their LD50 at 168 h values follow.

# test smiles, LD50 at 168 h
rows = [
    ("O=C(O)CN1C(=O)C(=O)N(Cc2ccc(Cl)c(Cl)c2)C1=O", "> 2000 mg/kg"),
    ("O=C(O)CN1C(=O)C(=O)N(Cc2cccc([N+](=O)[O-])c2)C1=O", "> 5000 mg/kg"),
    ("O=C(O)CN1C(=O)C(=O)N(Cc2ccc(Br)cc2)C1=O", "> 5000 mg/kg"),
]
